target: α-Synuclein (αS) aggregation (Homo sapiens, UniProt P37840); construct: made in house; host or cells: E. coli BL21(DE3); experiment: Thioflavin T (ThT) dye-based αS aggregation assay (de novo); format: biochemical; conditions: 96 h, pH 6.5, 100 μM αS, 1×PBS pH 6.5, four days, ligand:αS equimolar; read-out: ThT signal/intensity relative to αS alone (100%)
# note: boundary value 4% maps to 0.0; remaining activity at 100 µM below it maps to 1.0

Record smiles | Category label
Cc1ccc([N+](=O)[O-])c(OCC(=O)O)n1 | 0.0
Cc1ccc(NC(=O)c2ccc(NC(=O)c3ccc([N+](=O)[O-])c(NCCc4c[nH]c5ccccc45)n3)c(NCC3CCCCC3)n2)c(OCC(=O)OC(C)(C)C)n1 | 0.0
Cc1ccc(NC(=O)c2ccc(NC(=O)c3ccc([N+](=O)[O-])c(Cl)n3)c(NCC3CCCCC3)n2)c(OCC(=O)O)n1 | 0.0
Cc1ccc(NC(=O)c2ccc(NC(=O)c3ccc([N+](=O)[O-])c(NCC4CCCCC4)n3)c(NCC3CCCCC3)n2)c(OCC(=O)O)n1 | 0.0
Cc1ccc(NC(=O)c2ccc(NC(=O)c3ccc([N+](=O)[O-])c(NCCc4ccc(O)cc4)n3)c(NCC3CCCCC3)n2)c(OCC(=O)O)n1 | 1.0
